Cited source for all entries: patent US20260297060A1

In this section, each of the molecules is paired with its reported DC50.
- study_target: BRAF V600E (Homo sapiens, UniProt P15056+Q96SW2, V600E)
- Construct: knock-in of the HiBiT tag to the endogenous BRAF V600E locus; host or cells: A375.10 (A375 clonal line, CRISPR HiBiT knock-in at the endogenous BRAF V600E locus)
- Sequence (P15056 whole entry V600E): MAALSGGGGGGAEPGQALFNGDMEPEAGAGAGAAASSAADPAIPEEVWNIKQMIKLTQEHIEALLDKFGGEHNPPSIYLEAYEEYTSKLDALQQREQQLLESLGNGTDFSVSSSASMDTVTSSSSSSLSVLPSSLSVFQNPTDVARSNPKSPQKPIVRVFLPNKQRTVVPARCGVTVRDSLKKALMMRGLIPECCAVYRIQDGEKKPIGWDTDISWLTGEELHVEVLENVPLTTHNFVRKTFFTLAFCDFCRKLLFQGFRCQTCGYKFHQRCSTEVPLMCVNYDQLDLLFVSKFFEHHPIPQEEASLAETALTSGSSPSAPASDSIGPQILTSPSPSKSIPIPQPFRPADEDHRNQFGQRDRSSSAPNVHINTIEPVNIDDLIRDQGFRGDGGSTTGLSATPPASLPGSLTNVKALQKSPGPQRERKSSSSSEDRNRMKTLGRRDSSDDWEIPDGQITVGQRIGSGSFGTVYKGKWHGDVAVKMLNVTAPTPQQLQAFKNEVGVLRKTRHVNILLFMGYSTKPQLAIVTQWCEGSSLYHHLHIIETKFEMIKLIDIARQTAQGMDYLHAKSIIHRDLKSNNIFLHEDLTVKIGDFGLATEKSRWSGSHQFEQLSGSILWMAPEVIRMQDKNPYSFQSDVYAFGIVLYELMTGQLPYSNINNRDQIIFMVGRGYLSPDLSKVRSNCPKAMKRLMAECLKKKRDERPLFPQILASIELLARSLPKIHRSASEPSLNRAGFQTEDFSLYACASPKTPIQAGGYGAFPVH
- Sequence (Q96SW2 whole entry): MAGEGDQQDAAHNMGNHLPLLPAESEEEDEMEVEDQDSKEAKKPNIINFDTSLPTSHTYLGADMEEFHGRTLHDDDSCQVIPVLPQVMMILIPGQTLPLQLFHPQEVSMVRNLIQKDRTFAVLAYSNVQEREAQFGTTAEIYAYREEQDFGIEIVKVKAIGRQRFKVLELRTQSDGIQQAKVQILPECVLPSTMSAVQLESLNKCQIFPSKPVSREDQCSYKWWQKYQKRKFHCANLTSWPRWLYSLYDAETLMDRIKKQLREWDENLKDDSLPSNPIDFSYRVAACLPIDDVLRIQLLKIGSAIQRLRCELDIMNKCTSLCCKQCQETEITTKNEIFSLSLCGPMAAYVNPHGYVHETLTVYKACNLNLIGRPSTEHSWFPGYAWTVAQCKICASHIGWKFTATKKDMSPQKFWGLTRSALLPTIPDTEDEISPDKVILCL
- Sequence (Q16531 whole entry partner): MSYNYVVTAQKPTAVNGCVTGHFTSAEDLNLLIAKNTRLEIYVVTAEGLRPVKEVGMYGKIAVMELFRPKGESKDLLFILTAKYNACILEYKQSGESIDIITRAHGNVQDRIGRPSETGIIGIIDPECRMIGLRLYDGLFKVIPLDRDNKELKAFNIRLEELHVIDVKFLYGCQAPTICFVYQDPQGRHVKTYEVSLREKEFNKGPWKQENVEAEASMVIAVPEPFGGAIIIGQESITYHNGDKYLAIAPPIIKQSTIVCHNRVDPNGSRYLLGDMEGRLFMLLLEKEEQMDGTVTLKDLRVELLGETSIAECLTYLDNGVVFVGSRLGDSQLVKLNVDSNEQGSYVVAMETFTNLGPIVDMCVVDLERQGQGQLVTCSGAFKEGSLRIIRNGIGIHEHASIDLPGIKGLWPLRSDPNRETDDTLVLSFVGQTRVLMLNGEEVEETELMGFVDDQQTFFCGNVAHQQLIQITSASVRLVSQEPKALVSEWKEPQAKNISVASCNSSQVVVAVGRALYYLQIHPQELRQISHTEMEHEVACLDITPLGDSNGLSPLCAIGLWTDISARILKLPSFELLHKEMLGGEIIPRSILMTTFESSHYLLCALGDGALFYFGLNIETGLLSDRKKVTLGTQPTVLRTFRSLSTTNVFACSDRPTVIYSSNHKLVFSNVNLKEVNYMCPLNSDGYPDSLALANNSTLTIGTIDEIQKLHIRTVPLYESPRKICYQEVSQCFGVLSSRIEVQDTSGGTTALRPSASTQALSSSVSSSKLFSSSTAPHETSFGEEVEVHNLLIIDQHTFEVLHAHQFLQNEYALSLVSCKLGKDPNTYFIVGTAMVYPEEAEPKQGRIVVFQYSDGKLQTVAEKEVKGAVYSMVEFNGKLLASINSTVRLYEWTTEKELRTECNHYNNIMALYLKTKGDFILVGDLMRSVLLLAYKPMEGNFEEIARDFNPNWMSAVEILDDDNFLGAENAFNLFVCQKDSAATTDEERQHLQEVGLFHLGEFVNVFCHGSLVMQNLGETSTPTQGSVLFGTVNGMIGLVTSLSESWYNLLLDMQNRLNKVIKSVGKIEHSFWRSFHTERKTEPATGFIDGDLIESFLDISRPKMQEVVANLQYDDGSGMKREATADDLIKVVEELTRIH
- test_details: BRAF V600E HiBiT Degradation Assay
- Assay type: cell-based
- measurement_parameters: A375.10 cells, BRAF V600E, 2 hours; inflection point; read-out: HiBiT-Degradation A375.10 BRAF 2 hours IP

molecule: CO[C@H]1CCN(S(=O)(=O)Nc2ccc(F)c(Oc3ccc4ncn([C@H]5COC6(CCN(C7CCC(c8cc9c(cc8F)c(N8CCC(=O)NC8=O)nn9C)CC7)CC6)C5)c(=O)c4c3)c2C#N)C1 (single isomer, unassigned)
measured_result: < 1 µM

Here is another molecule to look at.
Query :: Param item = CCN(C)S(=O)(=O)Nc1ccc(F)c(Oc2ccc3ncc(CCC4CCN(C5CCC(c6cc7c(cc6F)c(N6CCC(=O)NC6=O)nn7C)CC5)CC4)nc3c2)c1C#N (single isomer, unassigned) [Compound 129] ; retrieve measured DC50.
Result :: < 1 µM
